Hi there, I'd appreciate the recorded relative signal [%] for every entry that follows.
Target: monoclonal antibody mAB 198
Test: peptide microarray, fluorescence, cyclic peptide
Where no end group is shown, it is not given here.
Kindly answer with a numeric value in %, unit omitted.

Please give the measured relative signal [%] for this binder: LRWNPADYGGF (also: cyclic peptide, mode of cyclisation not given here)
10.3

Entry RLRFNPADY (also: cyclic peptide, ring type and places not given here) : reported relative signal [%] = ?
21.3

Param item = GGSLRLNPADY (also: cyclic peptide, mode of cyclisation not given here) ; retrieve measured relative signal [%].
8.5

Could you tell me which relative signal [%] is on file for RLRWNPADYGS (also: cyclic peptide, ring type and places not given here) ?
9.7

// relative signal [%] lookup, key: WNPADYR (also: cyclic peptide, mode of cyclisation not given here) [WNPADYR, cyclic mimotope]
24.9
